System: L1210 leukemia ip in BDF1 mice, survival T/C
Assay: NCI In Vivo Anticancer Drug Screen. Data for tumor model L1210 Leukemia (intraperitoneal) in B6D2F1 (BDF1) mice
Conditions: endpoint: mean survival time; dose: 400.0 mg/kg/injection; schedule: Q04DX003 (ip); vehicle: saline with Tween-80; higher = longer survival
Inconclusive results and toxic doses are left out.
// values below are reported T/C
observable: T/C

[
  {
    "compound": "CCCCn1c(=O)cc(C(=O)O)c2ccccc21",
    "recorded-result": "95 % of control"
  },
  {
    "compound": "Oc1ccc(C2N(c3ccccc3)CCN2c2ccccc2)cc1",
    "recorded-result": "101 % of control"
  },
  {
    "compound": "CCCCCCCCCCCCCCCC(=O)Nc1cccc2c[n+](CC(=O)c3ccc(NC(=O)CCC(=O)OC)cc3)ccc12",
    "recorded-result": "94 % of control"
  },
  {
    "compound": "C1CCC2C(C1)CCCC2C1C2C3CCCCC3CCC2C2CCC3CCCCC3C21 (configuration not stated)",
    "recorded-result": "88 % of control"
  },
  {
    "compound": "O=C1CC(CO)CN1CCc1ccccc1 (configuration not stated)",
    "recorded-result": "96 % of control"
  },
  {
    "compound": "COC(=O)NC1CC(OC(=O)c2ccc(C)cc2)C(COC(=O)c2ccc(C)cc2)O1 (configuration not stated)",
    "recorded-result": "96 % of control"
  },
  {
    "compound": "C#CCSC(=S)NNc1ccccc1",
    "recorded-result": "93 % of control"
  },
  {
    "compound": "Cc1ccc(Cl)cc1NC(=O)N1CCCCC1C (configuration not stated)",
    "recorded-result": "95 % of control"
  },
  {
    "compound": "Cc1ccc(NC(=S)NCCO)cc1C",
    "recorded-result": "97 % of control"
  },
  {
    "compound": "Fc1ccc(C=Nc2cccc(Cl)c2)cc1",
    "recorded-result": "98 % of control"
  },
  {
    "compound": "CN(C=O)c1ccccc1C(=O)O",
    "recorded-result": "100 % of control"
  },
  {
    "compound": "CC[N+]1(C)CCC(CN2c3ccccc3Sc3ccccc32)C1 (configuration not stated)",
    "recorded-result": "100 % of control"
  }
]

---

// values below are reported T/C
Tested on: L1210 leukemia ip in BDF1 mice, survival T/C
Test: NCI In Vivo Anticancer Drug Screen. Data for tumor model L1210 Leukemia (intraperitoneal) in B6D2F1 (BDF1) mice
Details: endpoint: mean survival time; dose: 100.0 mg/kg/injection; schedule: Q04DX003 (ip); vehicle: Klucel (hydroxypropylcellulose) (HPC); higher = longer survival
Toxic doses and inconclusive results are not listed.

[
  {
    "compound": "O=C1c2ccccc2C2(c3ccccc3)C=NNC12c1ccccc1 (stereo not given)",
    "T/C": "106 % of control"
  },
  {
    "compound": "N#CCc1nc2ccccc2[nH]1",
    "T/C": "98 % of control"
  },
  {
    "compound": "O=C(Nc1cccc(C(F)(F)F)c1)C(c1ccccc1)c1ccccc1",
    "T/C": "110 % of control"
  },
  {
    "compound": "CC1(C)C(OC=O)C(C)(C)C1OC=O (stereo not given)",
    "T/C": "96 % of control"
  },
  {
    "compound": "CCCCCCCCCC1=NN(C2=NCCCC2)C(=O)C1",
    "T/C": "100 % of control"
  }
]

---

Tested on: L1210 leukemia ip in BDF1 mice, survival T/C
Test: NCI In Vivo Anticancer Drug Screen. Data for tumor model L1210 Leukemia (intraperitoneal) in B6D2F1 (BDF1) mice
Details: endpoint: mean survival time; dose: 200.0 mg/kg/injection; schedule: Q01DX009 (ip); vehicle: Klucel (hydroxypropylcellulose) (HPC); higher = longer survival
Toxic doses and inconclusive results are not listed.

[
  {
    "molecule": "OC1C2CC3C1C3C2c1ccccc1 (centres undefined)",
    "experimental-target": "L1210 leukemia ip in BDF1 mice, survival T/C",
    "T/C": "91 % of control"
  },
  {
    "molecule": "CN(C)c1ccc(C(C[N+](=O)[O-])(c2ccc(N(C)C)cc2)c2ccc(N(C)C)cc2)cc1",
    "experimental-target": "L1210 leukemia ip in BDF1 mice, survival T/C",
    "T/C": "100 % of control"
  },
  {
    "molecule": "Cc1ccc(NC(=S)/C(=C(\\[O-])c2ccc([N+](=O)[O-])cc2)[n+]2ccc(C(C)C)cc2)c(C)c1",
    "experimental-target": "L1210 leukemia ip in BDF1 mice, survival T/C",
    "T/C": "98 % of control"
  },
  {
    "molecule": "Cc1cccc(Cl)c1NC(=O)Nc1c(C)n(C)n(-c2ccccc2)c1=O",
    "experimental-target": "L1210 leukemia ip in BDF1 mice, survival T/C",
    "T/C": "102 % of control"
  },
  {
    "molecule": "NC(=O)c1ccccc1NC(=O)Nc1ccc(Cl)cc1",
    "experimental-target": "L1210 leukemia ip in BDF1 mice, survival T/C",
    "T/C": "96 % of control"
  },
  {
    "molecule": "O=C1NC(=O)/C(=C/c2ccccc2)N1",
    "experimental-target": "L1210 leukemia ip in BDF1 mice, survival T/C",
    "T/C": "98 % of control"
  },
  {
    "molecule": "CC/C(C)=N\\NC(=O)CC(=O)N/N=C(/C)CC",
    "experimental-target": "L1210 leukemia ip in BDF1 mice, survival T/C",
    "T/C": "101 % of control"
  },
  {
    "molecule": "Cc1cc(C)n(CO)n1",
    "experimental-target": "L1210 leukemia ip in BDF1 mice, survival T/C",
    "T/C": "108 % of control"
  },
  {
    "molecule": "CCOC(=O)NNC(N)=S",
    "experimental-target": "L1210 leukemia ip in BDF1 mice, survival T/C",
    "T/C": "97 % of control"
  },
  {
    "molecule": "COC(=O)c1c(I)cccc1[N+](=O)[O-]",
    "experimental-target": "L1210 leukemia ip in BDF1 mice, survival T/C",
    "T/C": "91 % of control"
  },
  {
    "molecule": "CNC(=O)c1ccccc1C(O)(c1ccccc1)c1ccccc1",
    "experimental-target": "L1210 leukemia ip in BDF1 mice, survival T/C",
    "T/C": "98 % of control"
  },
  {
    "molecule": "COC(=O)c1nn2c(=O)c3cccc4cccc(c43)c2c1C(=O)OC",
    "experimental-target": "L1210 leukemia ip in BDF1 mice, survival T/C",
    "T/C": "98 % of control"
  },
  {
    "molecule": "CCCCCCCC(N)CC(=O)O (centres undefined)",
    "experimental-target": "L1210 leukemia ip in BDF1 mice, survival T/C",
    "T/C": "97 % of control"
  },
  {
    "molecule": "O=C1CC(N2CCOCC2)c2ccccc21 (centres undefined)",
    "experimental-target": "L1210 leukemia ip in BDF1 mice, survival T/C",
    "T/C": "93 % of control"
  }
]

From: PubChem BioAssay AID248
